Test: oral exposure in the rat (pharmacokinetics)
Format: in vivo, Hsd:Sprague Dawley rats
Conditions: female, Hsd:Sprague Dawley, plasma, 1 mg/kg intravenous
parameter-measured: Tmax (min)

compound: Cc1sc2c(c1C)C(c1ccc(Cl)cc1)=N[C@@H](CC(=O)Nc1ccc(O)cc1)c1nnc(C)n1-2 [Compound (1-1), dihydrate]
observed-value: 15

###

Assay: pharmacokinetics and oral bioavailability in dogs
Format: in vivo
Conditions: male, beagle, dog, plasma, 1 mg/kg IV, to last measurable concentration
parameter-measured: AUC (ng·h/mL)

compound: Cc1sc2c(c1C)C(c1ccc(Cl)cc1)=N[C@@H](CC(=O)Nc1ccc(O)cc1)c1nnc(C)n1-2 [Compound (1-1), dihydrate]
parameter-measured: AUC
measure-unit: ng·h/mL
observed-value: 889
